target: human IL-17AA (Homo sapiens); assay: IL-8 release assay in human epithelial keratinocytes adult (HEKa); details: 3 ng/ml human IL-17AA + 10 ng/ml human TNFalpha, 68-72 h, IL-8 by HTRF, read-out: Rel EC50 L-8 release assay
Observation type: EC50

The examples below pair each entry with its known result.
* Cc1ncn(C)c1-c1ccc(NC(=O)[C@@H](NC(=O)C2(F)CC2)C(C)c2cc(-c3ccc(=O)n(C(C)C)c3)ccc2Cl)cc1 (stereo partly drawn) | > 1000 nM
* CC(C)n1cc(-c2ccc(Cl)c(CC(NC(=O)c3ccnn3C)C(=O)Nc3ccc(-c4nncn4C4CC4)cc3)c2)ccc1=O (stereo not drawn) | > 1000 nM
* CC(C)n1cc(-c2cccc(C(c3ccccc3)C(NC(=O)OC3CC3)C(=O)Nc3ccc(-c4cncn4C)cc3)c2)ccc1=O (single isomer, unassigned; diastereomer 2) [Example 239] | 100 to 1000 nM
* Cc1n[nH]c(C)c1-c1ccc(NC(=O)[C@@H](NC(=O)c2ccnn2C)[C@@H]2CCc3ccc(-c4ccc(CN5CCC5)cc4)cc32)cc1 | < 100 nM
* Cc1cnn(C)c1-c1ccc(NC(=O)[C@@H](NC(=O)C2(F)CC2)[C@@H]2CCc3ccc(-c4cc(C)c(=O)n(C(C)C)c4)cc32)cc1 | 100 to 1000 nM

# input Hello, I am looking for reported EC50 with human IL-17AA (Homo sapiens) for Cc1n[nH]c(C)c1-c1ccc(NC(=O)[C@H](Cc2cc(-c3ccc(=O)n(C(C)C)c3)ccc2Cl)NC(=O)C2(F)CC2)cc1 . Could you help?
# output < 100 nM

###

As shown below, each of these molecules has a reported pEC50 value.
target: human IL-17AA (Homo sapiens, UniProt Q16552); construct: host or cells: HEK (human embryonic kidney) cells; test: IL-8 release assay in human epithelial keratinocytes adult (HEKa); type: cell-based; settings: 3 ng/ml human IL-17AA + 10 ng/ml human TNFalpha, 68-72 h, IL-8 by HTRF, read-out: Rel EC50 L-8 release assay
pEC50: −log10 of the molar value.

Reference set, count: 2
- CC(C)n1cc(-c2cccc(C(c3ccccc3)C(NC(=O)c3ccnn3C)C(=O)Nc3ccc(-c4cncn4C)cc3)c2)ccc1=O (single isomer, unassigned; diastereomer 3) [Example 233]: < 6.00
- Cc1[nH]ncc1-c1ccc(NC(=O)C(Cc2cc(-c3ccc(=O)n(C(C)C)c3)ccc2Cl)NC(=O)c2ccnn2C)cc1 (stereo not drawn) [Example 89]: 6.00 to 7.00

From here, focus on the item given below.
# input # lookup: pEC50 of CC(C)n1cc(-c2ccc(Cl)c(CC(NC(=O)c3ccnn3C)C(=O)Nc3ccc(-c4cnn[nH]4)cc3)c2)ccc1=O (stereo not drawn) [Example 83]
# output 6.00 to 7.00

###

Molecular target: human IL-17AA (Homo sapiens)
Sequence (Q16552 24-155) 1: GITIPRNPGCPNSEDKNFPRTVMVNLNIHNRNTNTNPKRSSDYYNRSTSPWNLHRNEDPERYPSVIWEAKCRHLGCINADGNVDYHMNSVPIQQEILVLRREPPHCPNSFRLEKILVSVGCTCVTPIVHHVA
Sequence (Q16552 24-155) 2: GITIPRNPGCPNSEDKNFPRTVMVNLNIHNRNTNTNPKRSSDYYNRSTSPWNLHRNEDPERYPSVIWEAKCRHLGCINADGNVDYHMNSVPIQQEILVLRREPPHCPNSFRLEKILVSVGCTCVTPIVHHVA
Experiment: IL-8 release assay in human epithelial keratinocytes adult (HEKa)
Details: 3 ng/ml human IL-17AA + 10 ng/ml human TNFalpha, 68-72 h, IL-8 by HTRF, read-out: Rel EC50 L-8 release assay
pEC50: −log10 of the molar value.
Observation type: pEC50

// worked examples, pEC50 included
- CC(C)n1cc(-c2ccc3c(c2)[C@H]([C@H](NC(=O)c2ccnn2C)C(=O)Nc2ccc(-c4cncn4C)cc2)CCC3)ccc1=O [Example 30]: > 7.00
- Cn1cnnc1-c1ccc(NC(=O)C(Cc2cc(-c3ccc(O)c(CN4CCOCC4)c3)ccc2Cl)NC(=O)c2ccnn2C)cc1 (stereo not drawn): 6.00 to 7.00

Pending molecule:
# input Record Cc1ncn(C)c1-c1ccc(NC(=O)[C@H](Cc2cc(-c3cccc(C(C)(C)O)c3)ccc2Cl)NC(=O)c2ccnn2C)cc1 : what is its pEC50 with human IL-17AA (Homo sapiens)?
# output > 7.00

###

Measured EC50 accompanies every entry in the list below.
target: human IL-17AA (Homo sapiens, UniProt Q16552); assay: IL-8 release assay in human epithelial keratinocytes adult (HEKa); details: 3 ng/ml human IL-17AA + 10 ng/ml human TNFalpha, 68-72 h, IL-8 by HTRF, read-out: Rel EC50 L-8 release assay

# input Which measured EC50 belongs to Cn1cncc1-c1ccc(NC(=O)[C@H](Cc2cc(-c3ccnc(C(O)C4CC4)c3)ccc2Cl)NC(=O)c2ccnn2C)cc1 (stereo partly drawn) , tested on human IL-17AA (Homo sapiens, UniProt Q16552)?
# output 100 to 1000 nM

# input GET /values?readout=EC50&system=human IL-17AA (Homo sapiens, UniProt Q16552)&item= CC(C)n1cc(-c2ccc(Cl)c(C[C@H](NC(=O)C(C)(F)F)C(=O)Nc3ccc(-c4nncn4C)cc3)c2)ccc1=O
# output > 1000 nM

# input Find the measured EC50: item Cn1cnnc1-c1ccc(NC(=O)C(Cc2cc(-c3cccc(OC4CCC4)c3)ccc2Cl)NC(=O)c2ccnn2C)cc1 (stereo not drawn) , target or system human IL-17AA (Homo sapiens, UniProt Q16552).
# output 100 to 1000 nM

###

Biological target: human IL-17AA (Homo sapiens, UniProt Q16552)
Sequence (Q16552 24-155) 1: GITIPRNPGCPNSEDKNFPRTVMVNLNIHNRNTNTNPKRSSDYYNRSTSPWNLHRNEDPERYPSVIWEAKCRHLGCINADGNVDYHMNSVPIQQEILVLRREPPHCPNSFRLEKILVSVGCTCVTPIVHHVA
Sequence (Q16552 24-155) 2: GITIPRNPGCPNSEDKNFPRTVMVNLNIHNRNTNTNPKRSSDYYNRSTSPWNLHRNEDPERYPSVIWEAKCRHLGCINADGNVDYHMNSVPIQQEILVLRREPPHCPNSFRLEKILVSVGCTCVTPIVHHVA
Assay: IL-8 release assay in human epithelial keratinocytes adult (HEKa)
Conditions: 3 ng/ml human IL-17AA + 10 ng/ml human TNFalpha, 68-72 h, IL-8 by HTRF, read-out: Rel EC50 L-8 release assay
pEC50: −log10 of the molar value.
Reported values of pEC50 for individual entries

* CN(CC1CC1)c1cc(-c2ccc(Cl)c(CC(NC(=O)c3ccnn3C)C(=O)Nc3ccc(-c4cncn4C)cc3)c2)ccn1 (stereo not drawn) [Example 153] | > 7.00
* Cc1cnn(C)c1-c1ccc(NC(=O)[C@@H](NC(=O)C2(F)CC2)[C@H](C)c2cccc(-c3cc(N4C[C@@H]5C[C@H]4CO5)ncn3)c2)cc1 [Example 342] | < 6.00
* Cc1nccn1-c1ccc(NC(=O)[C@@H](NC(=O)C2(F)CC2)[C@@H]2CCCc3ccc(-c4ccnc(N5C[C@H]6C[C@@H]5CO6)c4)cc32)cc1 [Example 401] | 6.00 to 7.00
* CC(C)n1cc(-c2ccc(Cl)c(CC(NC(=O)c3conc3C(F)(F)F)C(=O)Nc3ccc(-c4nncn4C)cc3)c2)ccc1=O (stereo not drawn) [Example 95] | < 6.00
* CC(C)n1cc(-c2ccc(Cl)c(CC(NC(=O)OC3CCC3)C(=O)Nc3ccc(-c4nncn4C)cc3)c2)ccc1=O (stereo not drawn) [Example 105] | 6.00 to 7.00

Alright, here's another compound for you.
# input So what does the record say about pEC50 for CC(C)OC(=O)N[C@@H](Cc1cc(-c2ccc(=O)n(C(C)C)c2)ccc1Cl)C(=O)Nc1ccc(-c2nncn2C)cc1 [Example 99] ?
# output < 6.00

###

molecular target: human IL-17AA (Homo sapiens); experiment: IL-8 release assay in human epithelial keratinocytes adult (HEKa); conditions: 3 ng/ml human IL-17AA + 10 ng/ml human TNFalpha, 68-72 h, IL-8 by HTRF, read-out: Rel EC50 L-8 release assay
pEC50: −log10 of the molar value.
Below is a list of entries, each paired with its recorded pEC50 value.

• Cc1n[nH]c(C)c1-c1ccc(NC(=O)[C@@H](NC(=O)C2(F)CC2)[C@@H]2CCc3ccc(-c4ccnc(N5C[C@@H]6C[C@H]5CN6)c4)cc32)cc1 = > 7.00
• Cc1nocc1C(=O)N[C@@H](Cc1cc(-c2ccnc(C(C)(C)C)c2)ccc1Cl)C(=O)Nc1ccc(-c2nncn2C)cc1 = 6.00 to 7.00

Moving on to the next molecule.
# input I'd like to know its pEC50. The molecule in question is Cc1ncn(C)c1-c1ccc(NC(=O)[C@@H](NC(=O)C2(F)CC2)[C@@H]2CCCc3ccc(-c4ccc5c(c4)CNC5)cc32)cc1
# output 6.00 to 7.00
